Molecular target: T1, human TROP2-his protein (human, UniProt P09758 27-274)
T1 construct: Biotin-labelled in the ELISAs, unlabelled analyte in Biacore; also called biotin-labeled human TROP2-his protein; biotin human Trop2-his
T1 sequence: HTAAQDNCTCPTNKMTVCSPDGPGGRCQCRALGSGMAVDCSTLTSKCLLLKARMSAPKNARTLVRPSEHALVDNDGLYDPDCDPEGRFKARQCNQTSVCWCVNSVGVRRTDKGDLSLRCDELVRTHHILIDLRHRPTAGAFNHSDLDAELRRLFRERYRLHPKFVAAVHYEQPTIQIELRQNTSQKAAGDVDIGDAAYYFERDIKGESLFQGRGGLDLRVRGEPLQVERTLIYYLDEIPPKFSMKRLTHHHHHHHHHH
Assay: SPR Biacore T200, supernatant antibody captured on anti-human IgG CM5 chip, 40 nM human TROP2-his
Entries and their koff
Give the quantity in s⁻¹, number only.

Known koff results, listed for orientation:
binder	unit_label	data_value
huA1E4F7D4-V19 (antibody, human IgG1, kappa, V domains shown, Positions of the X residues are given in the claims; Tested as cell supernatant) VH: QVQLVQSGAEVKKPGASVKVSCKASGYSFTTHWIHWVRQAPGQGLEWIGTIFPSNAYAVYNQKFRDRVTMTADRSISTAYIELSRLRSDDTAVYYCARASYFDYWGQGTTVTVSS VL: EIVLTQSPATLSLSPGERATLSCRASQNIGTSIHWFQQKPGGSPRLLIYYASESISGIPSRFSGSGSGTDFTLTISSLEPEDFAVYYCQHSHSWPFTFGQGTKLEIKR	s⁻¹	0.000304
huA1E4F7D4-V10 (antibody, human IgG1, kappa, V domains shown, Positions of the X residues are given in the claims; Tested as cell supernatant) VH: QVQLVQSGAEVKKPGASVKVSCKASGYSFTTHWIHWVRQAPGQGLEWIGTIFPSNAYAVYNQKFRDRATMTRDRSISTAYIELSRLRSDDTAVYYCARASYFDYWGQGTTVTVSS VL: EIVLTQSPATLSLSPGERATLSCRASQNIGTSIHWFQQKPGQSPRLLIKYASESISGIPSRFSGSGSGTDFTLTISSLEPEDFAVYYCQHSHSWPFTFGQGTKLEIKR	s⁻¹	0.000206

Turning to the following binder.
Noted for huA1E4F7D4-V1 (antibody, human IgG1, kappa, V domains shown, Positions of the X residues are printed in CLM-00003 and CLM-00005; Tested as cell supernatant) VH: QVQLVQSGAEVKKPGASVKVSCKASGYSFTTHWIHWMKQRPGQGLEWIGTIFPSNAYAVYNQKFRDRAIMTADRSISTAYIELTRLRSDDTAVYYCARASYFDYWGQGTTVTVSS VL: DILLTQSPATLSLSPGERATLSCRASQNIGTSIHWFQQKPGGSPRLLIKYASESISGIPSRFSGSGSGTDFTLTISSVEPEDFAVYYCQHSHSWPFTFGQGTKLEIKR : its koff reads 0.000197
